experiment: In vivo pharmacokinetics and brain distribution in mice; details: male, CD1, plasma; Mouse, IV, 2 mg kg^-1

[
  {
    "Record smiles": "CN1CCN(Cc2ccc(NC(=O)c3cncc(C#Cc4cnc5cccnn45)c3)cc2C(F)(F)F)CC1",
    "Quantity unit": "h",
    "half-life": 1.3
  }
]

---

assay: In vivo pharmacokinetics in rats; design: species or system rat; details: male, Sprague-Dawley, plasma; Rat, PO, 100 mg kg^-1
Measure name: CL/F (mL/min/kg)

[
  {
    "Molecule": "CN1CCN(Cc2ccc(NC(=O)c3cncc(C#Cc4cnc5cccnn45)c3)cc2C(F)(F)F)CC1 [HSN748]",
    "Experimental result": 49.7
  }
]
